assay target: human GPR39 receptor (Homo sapiens, UniProt O43194)
Construct: PC3 Cells, Expressing the Endogenous Human GPR39 Receptor; endogenous in cells
Sequence (O43194 whole entry): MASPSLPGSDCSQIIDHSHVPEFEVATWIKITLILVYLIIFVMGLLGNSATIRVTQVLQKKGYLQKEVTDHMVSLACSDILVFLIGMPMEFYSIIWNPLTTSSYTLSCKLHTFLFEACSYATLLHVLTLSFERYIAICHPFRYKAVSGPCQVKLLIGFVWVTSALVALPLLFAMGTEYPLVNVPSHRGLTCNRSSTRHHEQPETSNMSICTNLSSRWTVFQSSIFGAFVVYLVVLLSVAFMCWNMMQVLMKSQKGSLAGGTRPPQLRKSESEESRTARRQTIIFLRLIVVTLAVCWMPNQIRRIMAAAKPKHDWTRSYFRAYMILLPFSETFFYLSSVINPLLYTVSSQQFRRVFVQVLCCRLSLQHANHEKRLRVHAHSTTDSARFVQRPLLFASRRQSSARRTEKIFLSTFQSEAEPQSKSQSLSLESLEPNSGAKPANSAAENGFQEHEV
method summary: Measurement of intracellular calcium response in PC3 cells (FLIPR), antagonism of the C3 agonist response
experimental parameters: functional pKi (modified Cheng-Prusoff), inhibition of the C3 (TC-G 1008) response at EC90, 30 μM ZnCl2, read-out: fpKi activity
pKi: −log10 of the molar value. Counter-ions that a name gives are not always drawn.
readout type: pKi

As a guide, the following entries are already answered.
// lookup pKi for CN1CCN(C(=O)c2ccc(NC(=O)C3CC3)cc2N2CCCCCC2)C(C(F)(F)F)C1 (stereo not shown) [Example 75] 6.00 to 6.50

// lookup pKi for CN1CCN(C(=O)c2ccc(NC(=O)C3CC3)cc2N2CCCCCC2)C(c2cccs2)C1 (single isomer, unassigned) [Example 69a] 5.20 to 5.90

// lookup pKi for CCCN1CCN(C(=O)c2ccc(NC(=O)C3CC3)cc2-n2ccc(C)c2)CC1 [Example 9] 5.20 to 5.90

// lookup pKi for O=C(Nc1ccc(C(=O)N2CCN(c3nccc4ccsc34)CC2)c(N2CCCCCC2)c1)C1CC1 [Example 33] 5.20 to 5.90

// lookup pKi for CC1CC(C)CN(c2cc(NC(=O)C3CC3)ccc2C(=O)N2CCN(C)CC2c2ccccc2)C1 (single isomer, unassigned) [Example 68f, hydrochloride] ≥ 7.30

***
// lookup pKi for CCCN1CCN(C(=O)c2ccc(NC(=O)C3CC3)cc2N2CCC3(CCC3)C2)CC1 [Example 1] ≥ 7.30

// lookup pKi for Cc1nnc(-c2ccc(C(=O)N3CCN(C)CC3c3ccccc3)c(N3CCCC3)c2)[nH]1 (racemic) [Example 150c] 6.60 to 7.20
